Where these numbers come from: patent US11872202B2

Tested on: Methicillin-resistant Staphylococcus aureus ATCC33591
protocol-text: MIC, micro-broth dilution method
Type: cell-based
test-settings: Methicillin-resistant Staphylococcus aureus ATCC33591; 37° C., 20-22 h; read-out: Minimum inhibitory concentration
Here, each record is paired with measured MIC data.
Supply the numeric figure in µg/mL, leaving out any unit text.

# annotated cases, reported MIC shown
{"columns": ["compound", "MIC [µg/mL]"],
 "data": [
  ["C=C[C@]1(C)C[C@@H](OC(=O)COC(=O)/C=C/c2cccc(OCc3ccccc3)c2)[C@]2(C)[C@H](C)CC[C@]3(CCC(=O)[C@H]32)[C@@H](C)[C@@H]1O [Compound 13]", 128],
  ["C=C[C@]1(C)C[C@@H](OC(=O)COC(=O)/C=C/c2ccc(OC)cc2)[C@]2(C)[C@H](C)CC[C@]3(CCC(=O)[C@H]32)[C@@H](C)[C@@H]1O [Compound 4]", 16],
  ["C=C[C@]1(C)C[C@@H](OC(=O)COC(=O)/C=C/c2cccc(F)c2)[C@]2(C)[C@H](C)CC[C@]3(CCC(=O)[C@H]32)[C@@H](C)[C@@H]1O [Compound 8]", 64],
  ["C=C[C@]1(C)C[C@@H](OC(=O)COC(=O)/C=C/c2ccc(F)c(Cl)c2)[C@]2(C)[C@H](C)CC[C@]3(CCC(=O)[C@H]32)[C@@H](C)[C@@H]1O [Compound 20]", 64]
]}

Field: next compound
The recorded MIC for C=C[C@]1(C)C[C@@H](OC(=O)COC(=O)/C=C/c2ccc(C(F)(F)F)cc2)[C@]2(C)[C@H](C)CC[C@]3(CCC(=O)[C@H]32)[C@@H](C)[C@@H]1O [Compound 15] is 128

====

protocol-text: In vitro cytotoxicity, CCK-8 method
Type: cell-based
test-settings: human, A549 cells, read-out: median inhibitory concentration (IC50), cytotoxicity
Entries and their IC50 at 24 h values follow.

Take a look at these entries with their results.
{"columns": ["molecule", "IC50 at 24 h"],
 "data": [
  ["C=C[C@]1(C)C[C@@H](OC(=O)CSCCN(CC)CC)[C@]2(C)[C@H](C)CC[C@]3(CCC(=O)[C@H]32)[C@@H](C)[C@@H]1O [Tiamulin, reference compound]", "> 200 µM"],
  ["C=C[C@]1(C)C[C@@H](OC(=O)COC(=O)/C=C/c2ccc([N+](=O)[O-])cc2)[C@]2(C)[C@H](C)CC[C@]3(CCC(=O)[C@H]32)[C@@H](C)[C@@H]1O", "> 200 µM"],
  ["C=C[C@]1(C)C[C@@H](OC(=O)COC(=O)/C=C/c2cccc(C#N)c2)[C@]2(C)[C@H](C)CC[C@]3(CCC(=O)[C@H]32)[C@@H](C)[C@@H]1O", "> 200 µM"]
]}

# IC50 at 24 h (molecule: "C=C[C@]1(C)C[C@@H](OC(=O)COC(=O)/C=C/c2ccc(OC)cc2)[C@]2(C)[C@H](C)CC[C@]3(CCC(=O)[C@H]32)[C@@H](C)[C@@H]1O" ) is 50.8 µM

Lookup result for "C=C[C@]1(C)C[C@@H](OC(=O)COC(=O)/C=C/c2ccc(N(C)C)cc2)[C@]2(C)[C@H](C)CC[C@]3(CCC(=O)[C@H]32)[C@@H](C)[C@@H]1O" ; measured IC50 at 24 h: > 200 µM
